Target: ETA receptor (wild type) (Homo sapiens)
Sequence (P25101 21-427): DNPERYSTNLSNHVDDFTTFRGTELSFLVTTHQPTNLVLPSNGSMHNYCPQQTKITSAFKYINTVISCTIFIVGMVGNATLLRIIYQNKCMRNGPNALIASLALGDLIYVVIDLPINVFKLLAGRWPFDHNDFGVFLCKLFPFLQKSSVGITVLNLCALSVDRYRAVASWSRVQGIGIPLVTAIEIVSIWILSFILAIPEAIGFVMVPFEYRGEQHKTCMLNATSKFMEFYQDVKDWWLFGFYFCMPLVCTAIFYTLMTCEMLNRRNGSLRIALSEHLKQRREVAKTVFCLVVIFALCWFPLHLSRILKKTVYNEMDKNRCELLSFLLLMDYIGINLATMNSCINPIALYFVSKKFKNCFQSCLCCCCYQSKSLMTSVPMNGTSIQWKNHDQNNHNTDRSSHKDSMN
Experiment: TGFα shedding assay, antagonist activity against ET-1 (0.5 nM)-induced AP-TGFα release
Conditions: IC50, Supplementary Fig. 5d, ETA (WT)
VALUE_TYPE: IC50

Incoming: Given CCCC[C@@H](NC(=O)[C@@H](Cc1cn(C(=O)OC)c2ccccc12)NC(=O)[C@H](CC(C)(C)C)NC(=O)N1[C@H](C)CCC[C@@H]1C)C(=O)O , state its recorded IC50.
Outgoing: > 10 µM

---

Target: ETA receptor (wild type) (Homo sapiens, UniProt P25101)
Sequence (P25101 21-427): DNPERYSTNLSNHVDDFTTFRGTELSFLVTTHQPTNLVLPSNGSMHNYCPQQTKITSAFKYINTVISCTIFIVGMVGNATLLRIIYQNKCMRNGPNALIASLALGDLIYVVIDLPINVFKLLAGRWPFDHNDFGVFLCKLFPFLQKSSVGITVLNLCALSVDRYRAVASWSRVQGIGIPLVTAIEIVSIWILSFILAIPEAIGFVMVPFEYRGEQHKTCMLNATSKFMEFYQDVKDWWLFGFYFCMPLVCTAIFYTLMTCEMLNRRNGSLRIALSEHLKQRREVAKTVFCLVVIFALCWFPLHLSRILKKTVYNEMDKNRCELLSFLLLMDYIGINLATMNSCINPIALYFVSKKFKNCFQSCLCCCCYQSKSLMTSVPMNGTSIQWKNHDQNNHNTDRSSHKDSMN
Assay: TGFα shedding assay, antagonist activity against ET-1 (0.5 nM)-induced AP-TGFα release
Settings: Supplementary Fig. 5d, ETA (WT)
VALUE_TYPE: IC50

Incoming: Requested read-out IC50, target or system ETA receptor (wild type) (Homo sapiens, UniProt P25101), entry COc1ccccc1Oc1c(NS(=O)(=O)c2ccc(C(C)(C)C)cc2)nc(-c2ncccn2)nc1OCCC(=O)Nc1c(C)cccc1C [K-8794]
Outgoing: > 3 µM

---

molecular target: ETB-L192^3.43Q (constitutively active ETB receptor) (Homo sapiens, UniProt P24530, L192Q); experiment: TGFα shedding assay, inverse agonist activity (4 h incubation); conditions: Table 3; ETB-L192^3.43Q; 4 h incubation; reduction of basal activity for inverse agonists
VALUE_TYPE: EC50 (nM)
Numbers only; they are read as nM.

Incoming: Given COc1ccccc1Oc1c(NS(=O)(=O)c2ccc(C(C)(C)C)cc2)nc(-c2ncccn2)nc1OCCC(=O)Nc1c(C)cccc1C , state its recorded EC50.
Outgoing: 0.61

---

molecular target: constitutively active ETB receptor (ETB-L3.43Q) (Homo sapiens, UniProt P24530, L192Q); assay: TGFα shedding assay, antagonist activity against ET-1 (0.5 nM)-induced AP-TGFα release; conditions: Supplementary Fig. 5d
Sequence (P24530 27-442 L192Q): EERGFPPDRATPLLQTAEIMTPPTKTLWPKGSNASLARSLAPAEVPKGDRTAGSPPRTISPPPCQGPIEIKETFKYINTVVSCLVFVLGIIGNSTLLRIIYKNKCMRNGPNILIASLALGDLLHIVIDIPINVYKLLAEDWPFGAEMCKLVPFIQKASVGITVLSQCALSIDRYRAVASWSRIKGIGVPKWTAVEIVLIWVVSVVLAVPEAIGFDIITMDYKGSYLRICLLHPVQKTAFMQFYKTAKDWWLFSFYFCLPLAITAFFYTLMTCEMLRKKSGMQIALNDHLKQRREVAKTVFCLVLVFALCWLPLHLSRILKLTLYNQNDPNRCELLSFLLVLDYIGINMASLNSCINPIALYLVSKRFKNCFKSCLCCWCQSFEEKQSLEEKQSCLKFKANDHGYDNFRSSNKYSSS
VALUE_TYPE: IC50 (nM)
Numbers only; they are read as nM.

Incoming: Given COc1ccccc1Oc1c(NS(=O)(=O)c2ccc(C(C)(C)C)cc2)nc(-c2ncccn2)nc1OCCC(=O)Nc1c(C)cccc1C , state its recorded IC50.
Outgoing: 4.2

---

biological target: ETB-L192^3.43Q (constitutively active ETB receptor) (Homo sapiens, UniProt P24530, L192Q); test: TGFα shedding assay, inverse agonist activity (4 h incubation); conditions: EC50, Table 3; ETB-L192^3.43Q; 4 h incubation; reduction of basal activity for inverse agonists
VALUE_TYPE: pEC50
Please report pEC50 as the negative decimal logarithm of the molar concentration, giving only the number.

Incoming: Requested read-out pEC50, target or system ETB-L192^3.43Q (constitutively active ETB receptor) (Homo sapiens, UniProt P24530, L192Q), entry CCCC[C@@H](NC(=O)[C@@H](Cc1cn(C(=O)OC)c2ccccc12)NC(=O)[C@H](CC(C)(C)C)NC(=O)N1[C@H](C)CCC[C@@H]1C)C(=O)O
Outgoing: 9.02

---

# maps each entry to its pIC50
target: constitutively active ETA receptor (ETA-L3.43Q) (Homo sapiens, UniProt P25101, L176Q); assay: TGFα shedding assay, antagonist activity against ET-1 (0.5 nM)-induced AP-TGFα release
pIC50: −log10 of the molar value.

INSERT INTO measurements (molecule, value_type, result) VALUES
  ('CCCC[C@@H](NC(=O)[C@@H](Cc1cn(C(=O)OC)c2ccccc12)NC(=O)[C@H](CC(C)(C)C)NC(=O)N1[C@H](C)CCC[C@@H]1C)C(=O)O [BQ-788]', 'pIC50', '< 5.00');

Next, consider the following molecule.
Incoming: Given Cc1cc(C)cc(C(=O)N(C)C(Cc2ccc(-c3ccccc3)cc2)C(=O)NC(Cc2c[nH]c3ccccc23)C(=O)O)c1 (centres unmarked) [IRL2500] , state its recorded pIC50.
Outgoing: < 5.52

---

target: ETB receptor (wild type) (Homo sapiens); construct: expressed in transfected cells; host or cells: HEK293A; experiment: TGFα shedding assay, antagonist activity against ET-1 (0.5 nM)-induced AP-TGFα release; assay type: cell-based; conditions: Supplementary Fig. 5d, ETB (WT), read-out: IC50
Sequence (P24530 27-442): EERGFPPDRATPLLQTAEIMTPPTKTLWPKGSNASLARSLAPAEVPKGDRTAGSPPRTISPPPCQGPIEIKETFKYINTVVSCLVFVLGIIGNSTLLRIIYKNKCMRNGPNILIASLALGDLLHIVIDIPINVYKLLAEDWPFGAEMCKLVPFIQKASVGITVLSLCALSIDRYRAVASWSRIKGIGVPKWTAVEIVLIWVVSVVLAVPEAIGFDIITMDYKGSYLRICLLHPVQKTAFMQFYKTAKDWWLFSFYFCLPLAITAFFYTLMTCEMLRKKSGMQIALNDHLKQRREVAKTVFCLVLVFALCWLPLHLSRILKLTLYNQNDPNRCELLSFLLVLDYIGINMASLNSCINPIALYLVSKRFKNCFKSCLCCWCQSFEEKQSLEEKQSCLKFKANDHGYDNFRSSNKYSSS
# maps each entry to its IC50
Numbers only; they are read as nM.

INSERT INTO assay_data (substance_smiles, value_type, value_units, numeric_result) VALUES
  ('COc1ccccc1Oc1c(NS(=O)(=O)c2ccc(C(C)(C)C)cc2)nc(-c2ncccn2)nc1OCCC(=O)Nc1c(C)cccc1C', 'IC50', 'nM', 8.7);

Incoming: Requested read-out IC50, target or system ETB receptor (wild type) (Homo sapiens), entry CCCC[C@@H](NC(=O)[C@@H](Cc1cn(C(=O)OC)c2ccccc12)NC(=O)[C@H](CC(C)(C)C)NC(=O)N1[C@H](C)CCC[C@@H]1C)C(=O)O
Outgoing: 110

---

molecular target: UniProt:P25101; experiment: TGFα shedding assay, antagonist activity against ET-1 (0.5 nM)-induced AP-TGFα release; conditions: pIC50 ± SEM ETA, Fig. 1a, HEK293 cells
pIC50: −log10 of the molar value.
VALUE_TYPE: pIC50

Incoming: Given Cc1cc(C)cc(C(=O)N(C)C(Cc2ccc(-c3ccccc3)cc2)C(=O)NC(Cc2c[nH]c3ccccc23)C(=O)O)c1 (stereo not shown) , state its recorded pIC50.
Outgoing: > 5.50

---

target: ETA receptor (wild type) (Homo sapiens); assay: TGFα shedding assay, antagonist activity against ET-1 (0.5 nM)-induced AP-TGFα release; conditions: IC50 for the ETA receptor, text on Fig. 1a
VALUE_TYPE: IC50

Incoming: Requested read-out IC50, target or system ETA receptor (wild type) (Homo sapiens), entry Cc1cc(C)cc(C(=O)N(C)C(Cc2ccc(-c3ccccc3)cc2)C(=O)NC(Cc2c[nH]c3ccccc23)C(=O)O)c1 (stereo not shown)
Outgoing: > 3 µM

Just for reference, paper PMC6588608 is where these values come from.
